The measurements presented in this section are drawn from the supplement of paper PMC10567573.

# METHOD: protein stability index of a GFP-peptide fusion (GPS, HEK-293T) (PSI 1-6); higher = more stable;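 note: 24-mer peptide tiles fused after GFP, lentivirally expressed, FACS-sorted into six equal bins by GFP/DsRed ratio, decoded by Illumina sequencing, PSI is the read-weighted mean bin number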
# TEST CONTEXT: treatment: DMSO; c terminus: a fixed tail appended
Returns one of 1 (yes) or 0 (no); 1 (yes) when protein stability index is >= 3.

SEQUENCE CHAIN: STTTTTHITKTVKGGISETRIEKR [EPB41L3]
LABEL CLASS: 1 (yes)
--
SEQUENCE CHAIN: SVEAGGSVHFDGETIEGAPPLWAA [FEM1A]
LABEL CLASS: 1 (yes)
--
SEQUENCE CHAIN: LLVGAAVFDALESDHEMREEEKLK [KCNK9]
LABEL CLASS: 1 (yes)
--
SEQUENCE CHAIN: LVHHRAAHSNEILIFSVQPKSLVR [KLHDC2]
LABEL CLASS: 0 (no)
--
SEQUENCE CHAIN: AEEFEQPTLSCEKYLTYDQLRKQK [ELOA2]
LABEL CLASS: 1 (yes)
--
SEQUENCE CHAIN: ILKSQKERQCALRVFKARIYTNRY [FBXO39]
LABEL CLASS: 0 (no)
--
SEQUENCE CHAIN: SFTQEQVADIDGQYAMTRAQRVRA [CTNNB1]
LABEL CLASS: 1 (yes)
--
SEQUENCE CHAIN: LASPHTVAAVLEAVAQTAHLPADS [RSAD1]
LABEL CLASS: 1 (yes)
--
SEQUENCE CHAIN: THLPKADIFALALTVVCAAGAEPL [WEE1]
LABEL CLASS: 1 (yes)
--
SEQUENCE CHAIN: EESEEERGLEPGKGRHHRGRGGEP [CHGB]
LABEL CLASS: 1 (yes)
--
SEQUENCE CHAIN: EDSLAALSSVPSEAQISDPFAPEP [SNAP91]
LABEL CLASS: 1 (yes)
--
SEQUENCE CHAIN: TPLIQQRARDSPEPGAGLGIGDMA [PSD2]
LABEL CLASS: 1 (yes)
--
SEQUENCE CHAIN: ERFIQYLASRNTLFNLSNFLDKSG [SNAP91]
LABEL CLASS: 0 (no)
--
SEQUENCE CHAIN: GPMMKLKRHFVAQKYKKQIDHMYH [ACSBG2]
LABEL CLASS: 0 (no)
--
SEQUENCE CHAIN: LTPHIVQYQANKVTHTLTMRQRIS [PPEF2]
LABEL CLASS: 0 (no)
--
SEQUENCE CHAIN: LFVIVPVLGPLVALIICYNWLHRR [MOG]
LABEL CLASS: 1 (yes)
--
SEQUENCE CHAIN: YRKQNAYIATQGSLPETFGDFWRM [PTPRD]
LABEL CLASS: 0 (no)
--
SEQUENCE CHAIN: GTDVTRCICGFTHDDGYMICCDKC [KMT2E]
LABEL CLASS: 1 (yes)
--
SEQUENCE CHAIN: SVRRTRSKIGFGILLSKEPDGVWA [SMAD6]
LABEL CLASS: 0 (no)
--
SEQUENCE CHAIN: PLHLAAQRGHYRVARILIDLCSDV [RIPK4]
LABEL CLASS: 0 (no)
--
SEQUENCE CHAIN: PPETTETPKCSSPRGQEGSRQDKP [YJU2B]
LABEL CLASS: 1 (yes)
--
SEQUENCE CHAIN: IEDTPLVPVSFIFIFTFVKKKKIG [PCDHGA10]
LABEL CLASS: 0 (no)
--
SEQUENCE CHAIN: KQIAVAITEALRPAGVGVVVEATH [GCH1]
LABEL CLASS: 0 (no)
--
SEQUENCE CHAIN: CFRFRQSSGRRVSLHCLLDQFDKD [DENND6A]
LABEL CLASS: 0 (no)

###

# METHOD: protein stability index of a GFP-peptide fusion (GPS, HEK-293T) (PSI 1-6); higher = more stable
# TEST CONTEXT: treatment: MLN4924 1 uM, 8 h; c terminus: a fixed tail appended
Returns one of Y or N; Y when protein stability index is >= 3.

SEQUENCE CHAIN: QHIDNITQIEDATEKLKANAESSK [TRIM14]
LABEL CLASS: Y
--
SEQUENCE CHAIN: PKRMPSGRGGRDRFTAESYTVLGD [FSD1]
LABEL CLASS: Y
--
SEQUENCE CHAIN: FGMAKIDNLLQEMLLGGSPSDAPH [HNF4A]
LABEL CLASS: N
--
SEQUENCE CHAIN: AESRELPVRCAGDWLPRGLGWGGR [ALG2]
LABEL CLASS: N
--
SEQUENCE CHAIN: GSAPFLFLSLACARGSIVATYIFI [SPNS1]
LABEL CLASS: N
--
SEQUENCE CHAIN: TLLPWNFFMTATQYFTNRLDMSQN [SLC29A1]
LABEL CLASS: N
--
SEQUENCE CHAIN: MEEAAVASVVLPARELQEALPEAP [BCL2L13]
LABEL CLASS: Y
--
SEQUENCE CHAIN: PGEDENPEKASELSQVELQAAPGA [TRIM55]
LABEL CLASS: Y
--
SEQUENCE CHAIN: NSSGDIGKKEIKPFKRFLRKKSKP [SMOC2]
LABEL CLASS: Y
--
SEQUENCE CHAIN: IEDDIRPEKQKRKPGLRRSPIKKV [MYBL2]
LABEL CLASS: Y
--
SEQUENCE CHAIN: RRALAPPSAGFRCCAAPGPHVALA [ANKRD9]
LABEL CLASS: N
--
SEQUENCE CHAIN: GLAANGALQRLDLRNNQISHKGAE [LRRC45]
LABEL CLASS: Y
--
SEQUENCE CHAIN: EGGTAVTGGQTVVNPWIIIGGVAT [SEPHS2]
LABEL CLASS: N
--
SEQUENCE CHAIN: EDSLAALSSVPSEAQISDPFAPEP [SNAP91]
LABEL CLASS: Y
--
SEQUENCE CHAIN: SDAGSPSLHKHLTIRLNISDVNDN [PCDHGC5]
LABEL CLASS: Y
--
SEQUENCE CHAIN: IIHVVKDQLIGQGIIVKDARLNGS [TENT5D]
LABEL CLASS: N
--
SEQUENCE CHAIN: KQKTSAALSTMGTLICRKLGGVKK [TPD52L3]
LABEL CLASS: N
--
SEQUENCE CHAIN: QVLNAIEAYTEHRPEITSRAINLL [ZER1]
LABEL CLASS: N
--
SEQUENCE CHAIN: ESHEVPGTLSMGVPQIFKYGETCF [ZNF24]
LABEL CLASS: N
--
SEQUENCE CHAIN: CAVTFFTILLSYGVILHSLKTQSL [OR4A15]
LABEL CLASS: Y
--
SEQUENCE CHAIN: HEEEVKGLQAQIASSGLTVEVDAP [KRT18]
LABEL CLASS: Y
--
SEQUENCE CHAIN: TYWEHWTSQGQVRMRLFGQRCQKC [RTP4]
LABEL CLASS: N
--
SEQUENCE CHAIN: SLKDQERVAEVSRVRVELQEQNGR [LRRC45]
LABEL CLASS: Y
--
SEQUENCE CHAIN: LSLFVQKLGNLMSLDISGHMILEN [ZER1]
LABEL CLASS: Y
--
SEQUENCE CHAIN: AEELALEQAKKESEDQKRLKQAKE [CHCHD3]
LABEL CLASS: Y
--
SEQUENCE CHAIN: EKNQVQLGKLEATIKSLSAELLKA [SASS6]
LABEL CLASS: N

###

# METHOD: protein stability index of a GFP-peptide fusion (GPS, HEK-293T) (PSI 1-6); higher = more stable
# TEST CONTEXT: treatment: MLN4924 1 uM, 8 h; c terminus: a fixed tail appended
Returns one of rule met or rule not met; rule met when protein stability index is >= 3.

SEQUENCE CHAIN: ERFIQYLASRNTLFNLSNFLDKSG [SNAP91]
LABEL CLASS: rule not met
//
SEQUENCE CHAIN: VEILDLNDNSPSFATPEREMRISE [PCDHGC5]
LABEL CLASS: rule met
//
SEQUENCE CHAIN: PEFDYLKSLEIEEKINKIKWLPQQ [PPP2R2C]
LABEL CLASS: rule met
//
SEQUENCE CHAIN: NCQSVAQMNLLQKYSLLKLTALLE [DLC1]
LABEL CLASS: rule not met
//
SEQUENCE CHAIN: AALNMSLGMVTPVNDLRGSDSIAY [ADD1]
LABEL CLASS: rule not met
//
SEQUENCE CHAIN: RAISTSVCVRAHESVVKSEDFSLP [COX4I1]
LABEL CLASS: rule met
//
SEQUENCE CHAIN: DLHFKMFDVGGQRSERKKWIHCFE [GNAI1]
LABEL CLASS: rule not met
//
SEQUENCE CHAIN: IKDQGGAGEGLVRSANGFPYREDE [MAP2]
LABEL CLASS: rule met
//
SEQUENCE CHAIN: HVFSELWDLSEAWMQANYDPLSDS [ELOA2]
LABEL CLASS: rule not met
//
SEQUENCE CHAIN: RRVLQGLEIELQSQLSMKASLENS [KRT16]
LABEL CLASS: rule not met
//
SEQUENCE CHAIN: VCDLQSLLGYTPEELHAMLDVKPD [ETS1]
LABEL CLASS: rule met
//
SEQUENCE CHAIN: IDKVRFLEQQNQVLETKWELLQQL [KRT71]
LABEL CLASS: rule not met
//
SEQUENCE CHAIN: VATTARHSAAYRADPLRVSSRDKL [FUNDC2]
LABEL CLASS: rule met
//
SEQUENCE CHAIN: ETEKEEEEEDREEEDENGLPRRRG [NEUROD6]
LABEL CLASS: rule met
//
SEQUENCE CHAIN: ARDVQKIIGDYFSDQDPRVRTAAI [INTS4]
LABEL CLASS: rule met
//
SEQUENCE CHAIN: SGEKPYKCSDCGKAFLTKTMLIVH [ZNF649]
LABEL CLASS: rule met
//
SEQUENCE CHAIN: LTVAKCWDPSPRGCFTLPRSEPIR [DVL3]
LABEL CLASS: rule not met
//
SEQUENCE CHAIN: AERLGVTFFEVSPLCNFNIIESFT [RAB40A]
LABEL CLASS: rule not met
//
SEQUENCE CHAIN: TLEELLPPNTRVLRVLPNLPCVVQ [PYCR3]
LABEL CLASS: rule not met
//
SEQUENCE CHAIN: RLRKHQHVGDFARDLAARWKKLVL [ELOA2]
LABEL CLASS: rule not met
//
SEQUENCE CHAIN: SLLRRIKGKLFTWNILKTIALGQM [SLC35F2]
LABEL CLASS: rule not met
//
SEQUENCE CHAIN: QFSRGDFVVEYHGDLIEITDAKKR [KMT5A]
LABEL CLASS: rule met
//
SEQUENCE CHAIN: DWYQRQRPSEIKDYSPYFKTIEDL [KRT16]
LABEL CLASS: rule not met
//
SEQUENCE CHAIN: AVVSCTPVHLVDKLPLPIALRSHL [RAB40B]
LABEL CLASS: rule not met
//
SEQUENCE CHAIN: GCQPEDRRRRIIINVGGIKYSLPW [KCNG1]
LABEL CLASS: rule not met
//
SEQUENCE CHAIN: PLTGFLTTVPDGPTQLRALNLTEG [TNXB]
LABEL CLASS: rule met
//
SEQUENCE CHAIN: MAMVVSTWRDPQDEVPGSQGSQAS [NR2F2]
LABEL CLASS: rule met
